Test system: VA-ES-BJ tumor spheroid viability
Assay: Anticancer human tumor VA-ES-BJ cell line growth inhibition;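 further: spheroids exposed to compounds for seven days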
Conditions: curve of first compound; second compound 3.16 µM; spheroids with HUVEC and MSC
For each record, check the reported IC50: if it is below 400 nM write true (1), else write false (0).

| compound | categoryLabel |
| --- | --- |
| CNCc1ccc(-c2cc(-c3nc(-c4ccc(S(=O)(=O)C(C)C)cc4)cnc3N)on2)cc1 + Cn1nnc2c(C(N)=O)ncn2c1=O | true (1) |
| Cc1cc(C)c(CNC(=O)c2cc(-c3ccc(CN4CCOCC4)cc3)cc3c2cnn3C2CCCC2)c(=O)[nH]1 + Cn1nnc2c(C(N)=O)ncn2c1=O | false (0) |
| CC1COCCN1c1cc(-c2ccnn2C)c2ccnc(-c3ccn[nH]3)c2n1 (stereo not given) + Cn1nnc2c(C(N)=O)ncn2c1=O | true (1) |
| Cc1sc2c(c1C)C(c1ccc(Cl)cc1)=NC(CC(=O)Nc1ccc(O)cc1)c1nnc(C)n1-2 (stereo not given) + Cn1nnc2c(C(N)=O)ncn2c1=O | true (1) |
| O=C(c1cc(Cc2n[nH]c(=O)c3ccccc23)ccc1F)N1CCN(C(=O)C2CC2)CC1 + Cn1nnc2c(C(N)=O)ncn2c1=O | false (0) |
| COc1cc(C)[nH]c(=O)c1CN1CCc2c(Cl)cc(C(OC)C3COC3)c(Cl)c2C1=O (stereo not given) + Cn1nnc2c(C(N)=O)ncn2c1=O | false (0) |
| [2H]c1nc(C)nc([2H])c1-c1cc(NC[C@@H](C)c2cccc3c(C(=O)NC)ccnc23)ncn1 + Cn1nnc2c(C(N)=O)ncn2c1=O | false (0) |
| Cn1ncnc1[C@H]1c2n[nH]c(=O)c3cc(F)cc(c23)N[C@@H]1c1ccc(F)cc1 + Cn1nnc2c(C(N)=O)ncn2c1=O | true (1) |
| COc1ccc([C@@H](O)c2cc(-c3ncnc4cc(N5CCOCC5)ccc34)c(F)cc2Cl)nn1 + Cn1nnc2c(C(N)=O)ncn2c1=O | false (0) |
| CC(C)n1c(=O)n(C)c2cnc3cc(F)c(-c4ccc(OCCCN5CCCCC5)nc4)cc3c21 + Cn1nnc2c(C(N)=O)ncn2c1=O | false (0) |
